- Test description: Stability in human liver microsomes
- Assay type: ADME, Microsome
Parameter: half-life

Query: Given the compound O=C(O)COc1c(C(=O)O)sc(-c2cccc(NC3CCN(S(=O)(=O)Cc4ccccc4)CC3)c2)c1Br , what is its reported half-life?
Result: > 1 h

----------
- Target under test: Tyrosine-protein phosphatase non-receptor type 1 (Homo sapiens, UniProt P18031)
- Sequence (P18031 whole entry): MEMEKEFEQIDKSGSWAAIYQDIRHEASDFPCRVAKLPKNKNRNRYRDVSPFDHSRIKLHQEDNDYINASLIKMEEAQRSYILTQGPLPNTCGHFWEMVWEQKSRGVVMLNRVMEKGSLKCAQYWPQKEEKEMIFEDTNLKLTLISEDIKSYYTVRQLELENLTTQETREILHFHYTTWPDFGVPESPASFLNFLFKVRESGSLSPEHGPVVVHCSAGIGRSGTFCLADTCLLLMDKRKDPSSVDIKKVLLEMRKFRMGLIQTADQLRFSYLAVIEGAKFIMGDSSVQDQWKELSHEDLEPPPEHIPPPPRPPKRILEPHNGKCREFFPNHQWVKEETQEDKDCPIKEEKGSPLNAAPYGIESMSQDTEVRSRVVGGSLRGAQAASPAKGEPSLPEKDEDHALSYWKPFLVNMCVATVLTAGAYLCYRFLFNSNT
- Test description: Inhibition of human recombinant PTP1B
With a cut-off of 300 nM, any Ki strictly below it is called yes (1); any Ki meeting it or above is called no (0).

Query: Hello, is Ki of the following compound strictly smaller than 300 nM? CC(C)NC(=O)Nc1cccc(-c2sc(C(=O)O)c(OCC(=O)O)c2Br)c1
Result: no (0)

Query: # TODO verify Ki < 300 nM strictly for this compound: Cc1ccccc1NC(=O)N1CCC(CNc2cccc(-c3sc(C(=O)O)c(OCC(=O)O)c3Br)c2)CC1
Result: yes (1)

----------
- Test description: Aqueous solubility at pH 7.4
- Assay type: physicochemical
Parameter: solubility

Query: What does the data say about its solubility? Entry: O=C(O)COc1c(C(=O)O)sc(-c2cccc(NC3CCN(S(=O)(=O)Cc4ccccc4)CC3)c2)c1Br
Result: > 100 µg/mL

----------
- Test description: Permeability coefficient across human Caco-2 cells
- Assay type: ADME, cell-based
- Test conditions: read-out: permeability
Parameter: Papp

Query: Look at this molecule and give its reported Papp. O=C(O)COc1c(C(=O)O)sc(-c2cccc(NC3CCN(S(=O)(=O)Cc4ccccc4)CC3)c2)c1Br
Result: < 1 ×10⁻⁶ cm/s

----------
- Test description: Drug level in C57/B6 mouse plasma at 10 mg/kg, ip after 7 hrs
- Assay type: ADME, organism-based
- Parameters: dose 10 mg/kg, route intraperitoneal
- Test conditions: read-out: Drug uptake
Parameter: concentration at 7 h

Query: Name the recorded concentration at 7 h for O=C(O)COc1c(C(=O)O)sc(-c2cccc(NC3CCN(S(=O)(=O)Cc4ccccc4)CC3)c2)c1Br .
Result: 370 nM

----------
- Test description: Cmax in C57/B6 mouse plasma at 10 mg/kg, ip after 1 hr
- Type: ADME, organism-based
- Set-up: dose 10 mg/kg, route intraperitoneal
Parameter: Cmax
Write the numeric value and follow it with the unit.

Query: Endpoint output: Cmax of O=C(O)COc1c(C(=O)O)sc(-c2cccc(NC3CCN(S(=O)(=O)Cc4ccccc4)CC3)c2)c1Br . Value?
Result: 15.2 µM

----------
- Target under test: Cytochrome P450 3A4 (Homo sapiens, UniProt P08684)
- Sequence (P08684 whole entry): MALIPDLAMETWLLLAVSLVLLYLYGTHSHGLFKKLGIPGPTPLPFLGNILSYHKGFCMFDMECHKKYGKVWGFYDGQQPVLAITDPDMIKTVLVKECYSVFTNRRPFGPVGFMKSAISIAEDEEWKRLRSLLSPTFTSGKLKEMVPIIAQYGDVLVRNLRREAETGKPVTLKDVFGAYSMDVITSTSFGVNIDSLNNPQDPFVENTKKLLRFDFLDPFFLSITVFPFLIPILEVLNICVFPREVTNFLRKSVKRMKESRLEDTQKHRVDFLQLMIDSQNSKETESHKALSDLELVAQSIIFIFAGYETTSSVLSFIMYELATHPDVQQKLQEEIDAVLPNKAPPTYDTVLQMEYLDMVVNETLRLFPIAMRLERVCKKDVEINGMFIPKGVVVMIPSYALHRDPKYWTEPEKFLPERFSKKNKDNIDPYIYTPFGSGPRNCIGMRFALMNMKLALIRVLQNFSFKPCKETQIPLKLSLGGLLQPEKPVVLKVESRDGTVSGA
Parameter: IC50

Query: Quick check: IC50 on Cytochrome P450 3A4 (Homo sapiens, UniProt P08684), item O=C(O)COc1c(C(=O)O)sc(-c2cccc(NC3CCN(S(=O)(=O)Cc4ccccc4)CC3)c2)c1Br ?
Result: > 500 µM

----------
- Target under test: UniProtKB P08575
- Sequence (P08575 whole entry): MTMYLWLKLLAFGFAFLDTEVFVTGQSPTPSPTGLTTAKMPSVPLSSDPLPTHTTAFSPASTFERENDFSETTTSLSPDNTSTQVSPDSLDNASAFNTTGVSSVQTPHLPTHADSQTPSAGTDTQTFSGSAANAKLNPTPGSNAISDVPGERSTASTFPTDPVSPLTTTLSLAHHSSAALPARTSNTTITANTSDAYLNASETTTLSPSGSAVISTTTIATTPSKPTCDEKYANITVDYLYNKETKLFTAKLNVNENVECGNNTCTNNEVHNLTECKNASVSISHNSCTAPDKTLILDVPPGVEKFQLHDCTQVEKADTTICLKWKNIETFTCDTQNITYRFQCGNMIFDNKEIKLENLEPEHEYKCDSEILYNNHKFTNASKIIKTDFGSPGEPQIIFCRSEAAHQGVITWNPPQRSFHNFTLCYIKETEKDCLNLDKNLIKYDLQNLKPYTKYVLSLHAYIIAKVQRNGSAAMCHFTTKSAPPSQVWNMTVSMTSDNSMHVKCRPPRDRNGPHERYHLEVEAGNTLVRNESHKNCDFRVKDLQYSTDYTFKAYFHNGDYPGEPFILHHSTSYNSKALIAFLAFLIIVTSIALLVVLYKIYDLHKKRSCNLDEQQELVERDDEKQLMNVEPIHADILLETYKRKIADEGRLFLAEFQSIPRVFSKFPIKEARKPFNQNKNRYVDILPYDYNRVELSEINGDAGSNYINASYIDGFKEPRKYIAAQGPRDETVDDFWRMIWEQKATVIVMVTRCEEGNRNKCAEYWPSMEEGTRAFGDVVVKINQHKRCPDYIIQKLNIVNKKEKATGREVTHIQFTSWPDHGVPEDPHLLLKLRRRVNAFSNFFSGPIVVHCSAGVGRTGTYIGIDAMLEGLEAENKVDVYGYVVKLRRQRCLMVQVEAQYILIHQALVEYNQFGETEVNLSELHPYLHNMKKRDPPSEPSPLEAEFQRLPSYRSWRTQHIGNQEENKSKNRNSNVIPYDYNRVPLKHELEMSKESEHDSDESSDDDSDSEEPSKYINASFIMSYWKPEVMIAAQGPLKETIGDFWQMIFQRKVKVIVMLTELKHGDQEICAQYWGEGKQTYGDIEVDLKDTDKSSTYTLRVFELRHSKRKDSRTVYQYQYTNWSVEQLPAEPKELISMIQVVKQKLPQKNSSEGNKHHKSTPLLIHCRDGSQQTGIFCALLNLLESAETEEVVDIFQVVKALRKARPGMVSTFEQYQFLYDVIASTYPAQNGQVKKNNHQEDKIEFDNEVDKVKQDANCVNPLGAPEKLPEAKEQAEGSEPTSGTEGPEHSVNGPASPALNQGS
- Test description: Inhibition of human recombinant CD45
Parameter: pKi
Value format note: pKi is -log10 of concentration (mol/L); just state the number.

Previously resolved entries follow.
compound_structure=O=C(O)COc1c(C(=O)O)sc(-c2cccc(NC3CCN(S(=O)(=O)Cc4ccccc4)CC3)c2)c1Br numeric_readout=4.11
compound_structure=O=C(O)COc1c(C(=O)O)sc(-c2ccccc2)c1Br numeric_readout=3.55

Here is another compound to look at.
Query: What pKi value was documented for this compound, CC1(C)CC(Nc2cccc(-c3sc(C(=O)O)c(OCC(=O)O)c3Br)c2)CC(C)(C)C1 ?
Result: 3.82
